The measured values listed here are drawn from ChEMBL document CHEMBL1201862.

- System: NCI/ADR-RES
- assay_details: NCI tumour cell line growth inhibition, 48 h
Activity calls are given as the source filed them. No stated cut-off is given here; in the data, active = GI50 up to about 1.1 µM and inactive = higher.
measurement_label: GI50

Reference set, count: 4
COC(=O)c1ccc(COC(=O)N2C=CCC2C(=O)O)cc1 (configuration not stated): > 100 µM (inactive)
O=C(O)CCC(C(=O)O)N1C(=O)c2ccccc2C1=O (configuration not stated): > 100 µM (inactive)
O=c1ccn([C@@H]2O[C@H](CO)[C@@H](O)[C@H]2F)c(=O)[nH]1: > 100 µM (inactive)
Cc1cn(C2CC(N)C(C(=O)NCC(=O)O)O2)c(=O)[nH]c1=O (configuration not stated): > 100 µM (inactive)

Below are 4 compounds. Give each one its GI50.
1. COc1ccc(N2C(=O)C3c4[nH]c5cccc(Cl)c5c4C4CCC(C(C)(C)C)CC4C3C2=O)cc1 (configuration not stated)
2. CC12CC1C(c1cccc([N+](=O)[O-])c1)(c1cccc([N+](=O)[O-])c1)N=N2 (configuration not stated)
3. CCOc1cc(C2SCC(=O)N2c2ccc(Oc3ccc(Cl)cc3)c(Cl)c2)ccc1O (configuration not stated)
4. CC(=O)OC1CCC2(C)C3CCC4(C)C(c5ccc(=O)oc5)CC5OC54C3CCC2(O)C1 (configuration not stated)

result:
1: > 100 µM (inactive); 2: 22.9 µM (inactive); 3: 17.7 µM (inactive); 4: 1.08 µM (active)

Below are 3 compounds. Give each one its GI50.
1. Cc1cc(C)nc(NS(=O)(=O)c2ccc(NNC(=O)c3cccc4c(=O)c5ccccc5[nH]c34)cc2)n1
2. CCC(CCCN)Nc1cc(OC)cc2c(C)ccnc12 (configuration not stated)
3. CCCC(=O)NC1=C(Cl)C(=O)c2ccccc2C1=O

result:
> 100 µM (inactive)
25.1 µM (inactive)
3.32 µM (inactive)

Below are 5 compounds. Give each one its GI50.
1. C[n+]1c(-c2ccc(/C=N/NC(=O)C(=O)N/N=C/c3ccc(-c4cn5ccsc5[n+]4C)cc3)cc2)cn2ccsc21
2. O=C(O)COc1cccc2ccccc(=O)c12
3. C1=N\CCOCC/N=C\c2ccc(cc2)OCc2cccc(n2)COc2ccc/1cc2
4. CCCC[C@H]1CCN2C[C@@H](O)[C@@H](O)[C@H]2[C@@H]1O
5. COC(=O)[C@@H]1N2C(=S)N(c3ccccc3)C(=O)[C@H]2SC1(C)C

result:
1. > 100 µM (inactive)
2. > 100 µM (inactive)
3. > 100 µM (inactive)
4. > 100 µM (inactive)
5. > 100 µM (inactive)

Recorded GI50 (compound Cn1cc2c3ccccc3nc-2c2ccccc21 [ISOCRYPTOLEPINE] ): 1.72 µM (inactive)

* * *

- Test system: OVCAR-4
- assay_details: NCI tumour cell line growth inhibition, 48 h
The source made the active and inactive calls. Cut-off read from the data, not from the text of the source: active = GI50 up to about 1.1 µM and inactive = higher.
Permitted responses: active, inactive

# count of solved cases: 3
Cn1nnnc1SC(F)(F)c1nc2ccccc2o1: inactive
Cc1cccc(C)c1NC(=O)/C(=N/NC(N)=S)C(C)C(=O)c1ccc(Cl)cc1 (centres undefined): inactive
CC(C)(C)O/C=C1/C(=O)OC2C[C@@H](O[Si](C)(C)C(C)(C)C)CC12 (some centres undefined): inactive

query: Returns: the outcome recorded for C[Si](C)(C)c1ccc(-c2sc(-c3ccc([Si](C)(C)C)s3)c3c2C[Si]2(C3)Cc3c(-c4ccc([Si](C)(C)C)s4)sc(-c4ccc([Si](C)(C)C)s4)c3C2)s1 in this assay.
result: inactive

query: Returns: the outcome recorded for COC(=O)c1cc(NC(=O)Cc2c[nH]c3ccccc23)cn1C in this assay.
result: inactive

query: Returns: the outcome recorded for COc1ccc(-n2sc3ncccc3c2=O)cc1 in this assay.
result: inactive

query: Returns: the outcome recorded for COc1cc(/C=C2\CC3C4CC[C@H]5C[C@@H](O)CC[C@]5(C)C4CC[C@]3(C)C2=O)cc(OC)c1OC (some centres undefined) in this assay.
result: inactive

query: Returns: the outcome recorded for O=C(O)c1cccc(/C=C/c2ccccc2)c1 in this assay.
result: inactive
